Origin of measurements: PubChem BioAssay

assay_procedure: adipocyte viability effects, profiling panel, cell-based, 3T3-L1 adipocytes, calcein-AM fluorescence, 48 h, basal (AID 1163); further: test concentration not given here
condition_description: 3T3-L1 adipocytes viability, higher = more signal
Entries annotated with measured z-score
Format: numeric value only, no unit, no commentary.

| compound | assay_result |
| --- | --- |
| C=CC[C@@]1(C(=O)O)N=C(c2ccc(OCCCO)cc2)O[C@@H]1c1ccccc1N=[N+]=[N-] | -0.76 |

Would you kindly look at the next entry?
# input Return z-score (reported value) for this compound: `C=CCNC(=O)[C@@H]1[C@H]2C(=O)O[C@H](c3ccccc3)[C@H](c3ccccc3)N2[C@H](c2ccccc2OCCO)[C@@]12C(=O)Nc1ccc(C#CC3=CCCCC3)cc12`
# output 1.98
